System: HCC-2998 colon
Assay: NCI-60 one-dose screen, 48 h
Settings: 10 µM unless noted
Protocol: Growth inhibition of the HCC-2998 human tumor cell line is measured as a screen for anti-cancer activity. Cells are grown in 96 well plates and exposed to the test compound for 48 hours. Compounds are tested at a single concentration, which is 10^-5 M for most compounds. The reported endpoint is percent growth (GI% or GIPRCNT), where numbers from 0 - 100% represent growth inhibition, and numbers from -100% - 0 represent cell death. For example, a value of 40 represents 60% growth inhibition. […]
This is part of a sample that, as a whole, favours compounds with a hit. Of some 83,000 tested, about 20% had one in any assay. Active and inactive are the calls of the source. The calls were made as follows: active = growth percent below 10; inactive = the rest.
Entry note: the call must match one of active, inactive

-- ask For COc1ccc(OC)c2c1[nH]c(=O)c1c3ncccc3cn21 , what call appears in the results of this test?
-- reply inactive

-- ask Try this compound too: CSc1n(Cc2ccc3ccccc3c2)c(C)c[n+]1Cc1ccc2ccccc2c1
-- reply active

-- ask Ok, now COc1cc(/C=C2\C(=O)ON=C2C)cc(OC)c1OC
-- reply inactive

-- ask Cool, now C#Cc1cccc(NC(=O)c2ccc(NC(=O)CCl)cc2)c1
-- reply inactive

-- ask Queued: COc1ccc(-c2nc(SCC(=O)Nc3nc(-c4ccccc4)cs3)[nH]c(=O)c2C#N)cc1
-- reply inactive

-- ask Then this compound: COc1ccc(C2c3ccc4ccccc4c3Oc3nc(C)[nH]c(=O)c32)cc1 (configuration not stated)
-- reply inactive

-- ask Repeat with COc1cc(-c2nc(N3CCN(C)CC3)c3ccccc3n2)cc(OC)c1OC
-- reply inactive

-- ask Now the same for CCOC(=O)c1c2ncccc2n2c(=O)n(-c3ccccc3C)nnc12
-- reply inactive

-- ask Param item: O=C(CSc1nnc(-c2ccc(NC(=O)c3cccnc3)cc2)o1)Nc1cccc(Br)c1
-- reply inactive

-- ask What do we get for CCCCCCN(CCCCCC)c1ccc(/C=C2/SC(=O)N(c3nc(N4CCCC4)nc(N4CCCC4)n3)C2=O)c(C)c1 ?
-- reply inactive

-- ask Check COc1cc(-c2n/c(=C\c3c(O)[nH]c4ccc(Cl)cc34)cc3c2=Nc2ccccc2-3)cc(OC)c1OC too.
-- reply inactive

-- ask Field entry: Cc1cc(NCc2cc(Nc3ccnc4cc(Cl)ccc34)ccc2F)nc(Cl)n1
-- reply inactive

----------
test system: MOLT-4 leukemia; experiment: NCI-60 one-dose screen, 48 h (100 = growth as untreated, 0 = no growth, -100 = all killed); conditions: 10 µM unless noted
The panel holds about 83,000 compounds, 20% with a hit somewhere; the sample as a whole holds those more often.
PROPERTY_LABEL: growth (%)
Answer with a number only, understood to be in %.

-- ask Record lookup: for MOLT-4 leukemia, what growth belongs to CC(=O)OC1CCC2(C)C(=CC3C4CCC(=O)C4(C)CCC32)C1 (centres undefined) ?
-- reply 103

-- ask Request: CC/C=C1/C(=O)C=C[C@@H]1C/C=C\CCCC(=O)O
-- reply 9.64

-- ask What do you get for Cc1cc(Cl)ccc1Nc1nc(C(F)(F)F)ccc1C(=O)N/N=C/c1ccc(N(C)C)cc1 ?
-- reply 12.8

-- ask And then N#Cc1c(N)nc2c(C#N)c(NC(=O)c3ccccc3)nn2c1-c1ccccc1 , what is it?
-- reply 74.9

-- ask Query COc1cc(OC)cc(C2CC(=O)Nc3c2c(C)nn3-c2nc3ccccc3[nH]2)c1 (centres undefined) next
-- reply -8.06

-- ask What do you have for Cn1c(-c2c(N)n(Cc3ccc(C(F)(F)F)cc3)c3nc(C#N)c(C#N)nc23)nc2ccccc21 ?
-- reply -16.8

-- ask One more compound: Cc1cc(/C=C\c2ccc3ccccc3[n+]2C)c(O)c2ncccc12
-- reply 0.695

-- ask O=c1ccn2nc3ccccc3c2[nH]1 , same question.
-- reply 108

-- ask Please give the result for Fc1c[c-]c(-c2ccccn2)c(F)c1.[CH3-].[Pt+2].c1ccc(P(C[PH+](c2ccccc2)c2ccccc2)c2ccccc2)cc1 too.
-- reply 0

-- ask And for Cc1ccc(C(=NN=C(N)N)c2ccc(C)cc2)cc1 ?
-- reply 5.74

-- ask Please do the same for NS(=O)(=O)c1ccc(-n2nc(C(=O)N/N=C\c3ccc(F)cc3)cc2-c2ccc(Cl)cc2)cc1 as well.
-- reply 89.2

-- ask Also COC(=O)/C=C1\S/C(=N\NS(=O)(=O)c2ccc(C)cc2)N(c2ccccc2)C1=O , if possible.
-- reply 93.9

-- ask Record: C=C1C(=O)O[C@H]2[C@H]1CC/C(COC(=O)C(=O)c1c[nH]c3ccc(OC)cc13)=C\CC[C@@]1(C)O[C@@H]21
-- reply -28.2

-- ask Next compound up: C[C@@H]1N=C(c2ccc3ccccc3n2)Nc2nc3ccccn3c2C1=O
-- reply 100

-- ask What do we get for C=C(C)[C@@H]1CC=C2c3sc(-c4ccc(C)cc4)nc3C[C@@H](C)[C@]2(C)C1 ?
-- reply 98

-- ask Same question, NC(N)=Nc1nc2ccccc2n2c1nc1ccccc12 this time
-- reply 7.99

-- ask For Cc1c(C(=O)NC(Cc2ccccc2)C(O)C(=O)NCc2ccc(F)cc2)[nH]c2ccccc2c1=O (centres undefined) then?
-- reply 93.6

-- ask Note, next up: O=c1[nH]c2ccccc2n1C1CCN(CCOc2ccccc2)CC1
-- reply 86.4

-- ask Now try NCCCNc1nc2ccccc2c2c(=O)c3cccc(Cl)c3sc12 .
-- reply -23.4

-- ask Now consider COC(=O)c1c2c(c[n+]([O-])c1C)C(=O)C=CC2=O and answer again.
-- reply -17.4

-- ask Check COc1cc(/C=N/n2c(CN3CCOCC3)nc3ccccc3c2=O)cc(OC)c1OC too.
-- reply 103

-- ask Cn1ccc2c(c1=O)C(=O)c1nccc3c1c-2nc1ccccc13 ?
-- reply 34.5

-- ask Next compound up: CC(CN1CCCCC1)C(=O)c1ccccc1 (centres undefined)
-- reply 106

-- ask Thanks! And COc1ccc2oc3c(C)c4c(c(C)c3c2c1)C(=O)N(Cc1ccccc1)C4=O ?
-- reply 106

-- ask Can you handle CC1=CN2C(=O)C3C4=C(CCCC4)SC3N=C2CN1c1c(C)cccc1C (centres undefined) next?
-- reply 77

-- ask And N#Cc1c(N2CCNCC2)nc2sc3cc(Cl)c(Cl)cc3n2c1=N ?
-- reply 70.4

-- ask Continue with CNC(=O)CCN1CCN(CC/C=C2\c3ccccc3Sc3ccc(Cl)cc32)CC1
-- reply 50.9

-- ask Could you do the same for CCOC(=O)c1ccc(N2NC(=O)/C(=C/c3ccc([N+](=O)[O-])o3)C2=O)cc1 , please?
-- reply 105

-- ask Same again, this time with CC/C=C/C/C=C/C/C=C/C/C=C/C/C=C/C/C=C/CCC(=O)Nc1ccn([C@@H]2O[C@H](CO)[C@@H](O)C2(F)F)c(=O)n1
-- reply 1.85

-- ask Would you kindly repeat that for CCCCCCN(CCCCCC)c1ccc(/C=C2/SC(=O)N(c3nc(N4CCCC4)nc(N4CCCC4)n3)C2=O)c(C)c1 ?
-- reply 38.1

-- ask What about this compound? CCCCC1CCCCN1C(=O)OCC (centres undefined)
-- reply 115

-- ask Queued: CC(=O)c1ccc(NCC(=O)Nc2ccccn2)cc1
-- reply 100

-- ask # repeat for CCN(CC)CCn1nc2c3c(cccc3c1=O)-c1ccccc1-2
-- reply 4.13

-- ask Repeat with N#C/C(=C\c1ccc2c(c1)OCO2)n1nnc2cc(F)c(F)cc21
-- reply 63.9

-- ask And for CN1C(=O)N(C)C2C1NN=c1s/c(=C\c3ccccc3)c(=O)n12 (centres undefined) ?
-- reply 58.1

-- ask Continue with COc1ccc2c(c1)C(=O)/C(=C/c1ccc(OCC(=O)Nc3nccs3)cc1)O2
-- reply -72.9

-- ask Same again, this time with COc1ccc(NC(=O)CSc2nc(C)c(C(C)=O)n2-c2ccc(Cl)cc2)cc1
-- reply 91

-- ask Same for Cn1c(I)c(C#C[Si](C)(C)C)c(=O)n(C(=O)c2ccccc2)c1=O
-- reply -69.9

-- ask Record: COc1ccc(S(=O)(=O)NCCNc2nccc(-c3c(-c4cccc(F)c4)nc4sccn34)n2)cc1
-- reply 33.9

----------
test system: T-47D breast; assay: NCI-60 one-dose screen, 48 h (100 = growth as untreated, 0 = no growth, -100 = all killed); details: 10 µM unless noted
The panel holds about 83,000 compounds, 20% with a hit somewhere; the sample as a whole holds those more often.
Binary label based on growth with cut-off 60%: below gives fulfilled, not below gives not fulfilled.

-- ask In the record for O=c1c2c3c(sc2n2c(-c4cc(-c5ccccc5)nn4-c4ccccc4)nnc2n1Cc1ccccc1)CCCC3 , is growth less than 60%?
-- reply not fulfilled

-- ask Try this compound next: N#Cc1c(N2CCNCC2)nc2sc3cc(Cl)c(Cl)cc3n2c1=N
-- reply not fulfilled

-- ask Item: COc1ccc2c(c1)C(=O)/C(=C/c1cccc(OCC(=O)Nc3nc(C)c(C)s3)c1)O2
-- reply fulfilled

-- ask Cool, now CC(=O)OC1CCC2(C)C(=CC3C4CCC(=O)C4(C)CCC32)C1 (configuration not stated)
-- reply not fulfilled

-- ask Now this one: O=C(N/N=C/c1ccncc1)c1ccc(C(F)(F)F)nc1Nc1cccc(C(F)(F)F)c1
-- reply fulfilled

-- ask Next up: COc1cc(/C=C/C(=O)N2CCN(C(=O)c3cc(OC)c(OC)c(OC)c3)CC2)ccc1OCCCN1C(=O)c2cccc3cccc(c23)C1=O
-- reply not fulfilled

-- ask Please answer likewise for O=C(O)CN1C(=O)CCC1=O
-- reply not fulfilled

-- ask And then CCN(CC)CCCC(C)Nc1c2ccc(Cl)cc2nc2ccc(O)cc12 (configuration not stated) , what is it?
-- reply fulfilled

-- ask Also need Cc1cc[c-]cc1.Fc1c[c-]c(-c2ccccn2)c(F)c1.[Pt+2].c1ccc(P(C[PH+](c2ccccc2)c2ccccc2)c2ccccc2)cc1 , thanks.
-- reply fulfilled

-- ask Now consider Cc1nc2c(c(N3CCCc4ccccc43)n1)CCC2 and answer again.
-- reply fulfilled

-- ask Follow-up item: O=C1N=c2cc3c(cc2=C/C1=C/c1sc(=S)n(CCc2ccc(O)cc2)c1O)OCCO3
-- reply not fulfilled

-- ask What about O=C(CCCCCCN1CC(=O)N2[C@@H](c3ccccc3Cl)c3[nH]c4ccccc4c3C[C@H]2C1=O)NO ?
-- reply fulfilled

-- ask Same lookup for O=C(NCCCNc1cc(-c2cn(-c3ccccc3)nc2-c2cccc(O)c2)ccn1)c1ccccc1 , please.
-- reply fulfilled

-- ask Thanks! And COc1cccc(-c2nn(-c3ccccc3)cc2-c2ccnc(NCCNC(=O)c3ccccc3)c2)c1 ?
-- reply fulfilled

-- ask // query: CCCCCS(=O)(=O)Nc1ccc(C(=O)O)cc1
-- reply not fulfilled

-- ask For COc1cc(/C=C/C(=O)c2c(C)nc3ccccc3c2/C=C/c2ccc(C)cc2)cc(OC)c1OC then?
-- reply fulfilled

-- ask Now this one: N#Cc1nc(C#N)c(Sc2ccccc2)c(Sc2ccccc2)c1Sc1ccccc1
-- reply fulfilled

-- ask Moving on to C[C@H](NC(=O)[C@@H]1CSSC[C@@H](NC(=O)c2nc3ccccc3cc2O)C(=O)NCC(=O)N1C)c1ccccc1
-- reply fulfilled

-- ask Same read-out for Cc1ccc(/C=C2\C(=O)N(C)c3ccc(S(=O)(=O)Nc4ccc(C(C)(C)C)cc4)cc32)s1 ?
-- reply fulfilled

-- ask Now consider O=c1c2cc(F)ccc2sc2c(Nc3cccnc3)nc3ccccc3c12 .
-- reply not fulfilled

-- ask Subsequent entry: Cc1ccc(N2CCN(C(=S)c3cccs3)CC2)cc1
-- reply not fulfilled

-- ask Do the same for CC1=CN2C(=O)C3C4=C(CCCC4)SC3N=C2CN1c1c(C)cccc1C (configuration not stated) please
-- reply not fulfilled
